- test.target: Cytochrome P450 2C9 (Homo sapiens, UniProt P11712)
- Sequence (P11712 whole entry): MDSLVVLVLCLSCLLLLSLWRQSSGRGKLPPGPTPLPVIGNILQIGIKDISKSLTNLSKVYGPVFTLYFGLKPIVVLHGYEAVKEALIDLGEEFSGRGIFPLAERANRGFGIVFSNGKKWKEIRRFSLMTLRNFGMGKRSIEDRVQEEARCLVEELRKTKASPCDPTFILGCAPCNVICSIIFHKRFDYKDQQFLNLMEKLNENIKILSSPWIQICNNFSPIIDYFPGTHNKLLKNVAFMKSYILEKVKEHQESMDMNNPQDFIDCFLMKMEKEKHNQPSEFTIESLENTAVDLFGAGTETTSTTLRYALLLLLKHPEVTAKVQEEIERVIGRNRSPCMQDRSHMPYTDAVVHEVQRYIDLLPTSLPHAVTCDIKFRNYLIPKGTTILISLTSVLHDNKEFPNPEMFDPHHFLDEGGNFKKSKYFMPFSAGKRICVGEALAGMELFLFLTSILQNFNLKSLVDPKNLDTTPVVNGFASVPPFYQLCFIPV
- experimental.protocol: Inhibition of recombinant human Cytochrome P450 2C9
endpoint.label: pIC50
Please keep in mind that pIC50 is minus log10 of the molar concentration; only the number is needed.

The measured pIC50 that `CSc1nc2ccccn2c(=N)c1S(=O)(=O)c1ccccc1` showed for Cytochrome P450 2C9 (Homo sapiens, UniProt P11712) is 4.62

* * *

- test.target: Cytochrome P450 3A4 (Homo sapiens)
- Sequence (P08684 whole entry): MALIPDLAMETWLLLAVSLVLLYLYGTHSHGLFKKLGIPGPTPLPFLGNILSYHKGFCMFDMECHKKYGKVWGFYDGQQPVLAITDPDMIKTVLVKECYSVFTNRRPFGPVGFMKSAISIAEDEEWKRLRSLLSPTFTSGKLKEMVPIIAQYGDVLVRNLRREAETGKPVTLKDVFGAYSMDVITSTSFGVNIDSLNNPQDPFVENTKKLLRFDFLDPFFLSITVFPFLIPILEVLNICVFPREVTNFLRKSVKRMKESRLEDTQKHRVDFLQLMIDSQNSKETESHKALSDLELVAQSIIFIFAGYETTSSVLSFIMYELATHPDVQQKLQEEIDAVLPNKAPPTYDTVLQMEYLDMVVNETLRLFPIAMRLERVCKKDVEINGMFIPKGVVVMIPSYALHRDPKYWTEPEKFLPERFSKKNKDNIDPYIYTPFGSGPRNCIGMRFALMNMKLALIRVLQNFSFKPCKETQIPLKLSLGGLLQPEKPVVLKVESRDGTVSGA
- experimental.protocol: Inhibition of recombinant human Cytochrome P450 3A4 with BFC
- Assay type: ADME
endpoint.label: IC50

response.value for `CSc1nc2ccccn2c(=N)c1S(=O)(=O)c1ccccc1` (field: IC50) = > 40 µM

* * *

- test.target: Cytochrome P450 2D6 (Homo sapiens, UniProt P10635)
- Sequence (P10635 whole entry): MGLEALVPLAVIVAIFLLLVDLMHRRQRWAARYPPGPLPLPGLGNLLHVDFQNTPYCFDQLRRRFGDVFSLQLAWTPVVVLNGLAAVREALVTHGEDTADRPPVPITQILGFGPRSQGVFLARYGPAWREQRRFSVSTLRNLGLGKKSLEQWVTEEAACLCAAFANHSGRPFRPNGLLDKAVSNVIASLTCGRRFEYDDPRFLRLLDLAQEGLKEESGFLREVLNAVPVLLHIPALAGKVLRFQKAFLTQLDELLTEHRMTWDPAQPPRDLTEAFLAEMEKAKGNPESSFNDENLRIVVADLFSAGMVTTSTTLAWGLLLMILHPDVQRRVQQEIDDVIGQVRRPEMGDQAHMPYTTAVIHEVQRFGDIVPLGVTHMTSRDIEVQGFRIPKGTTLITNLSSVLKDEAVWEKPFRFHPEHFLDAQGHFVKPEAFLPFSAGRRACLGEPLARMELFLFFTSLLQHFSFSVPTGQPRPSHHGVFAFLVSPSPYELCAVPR
- experimental.protocol: Inhibition of recombinant human Cytochrome P450 2D6
- Format: ADME
endpoint.label: IC50

response.value for `CSc1nc2ccccn2c(=N)c1S(=O)(=O)c1ccccc1` (field: IC50) = > 40 µM

* * *

# collection of pIC50 values tested on 5-hydroxytryptamine receptor 6 (Homo sapiens)
# Sequence (P50406 whole entry): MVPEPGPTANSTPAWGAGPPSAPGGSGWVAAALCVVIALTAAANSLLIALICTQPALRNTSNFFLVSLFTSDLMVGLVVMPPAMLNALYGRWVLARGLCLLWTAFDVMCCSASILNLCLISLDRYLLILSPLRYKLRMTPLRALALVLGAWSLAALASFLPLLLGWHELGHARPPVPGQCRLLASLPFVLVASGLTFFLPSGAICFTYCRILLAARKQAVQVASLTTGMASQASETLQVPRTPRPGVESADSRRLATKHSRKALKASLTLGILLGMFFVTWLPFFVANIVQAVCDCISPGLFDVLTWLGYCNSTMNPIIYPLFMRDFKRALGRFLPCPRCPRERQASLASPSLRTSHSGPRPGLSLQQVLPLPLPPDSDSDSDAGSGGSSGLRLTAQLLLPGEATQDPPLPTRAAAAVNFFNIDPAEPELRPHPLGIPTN
Please keep in mind that pIC50 is minus log10 of the molar concentration; only the number is needed.

The measured pIC50 that `CCCS(=O)(=O)c1c(SC)nc2ccccn2c1=N` showed for 5-hydroxytryptamine receptor 6 (Homo sapiens) is 5.45

The measured pIC50 that `N#C/C(=C\Nc1ccccn1)S(=O)(=O)c1ccccc1` showed for 5-hydroxytryptamine receptor 6 (Homo sapiens) is 6.28

The measured pIC50 that `CSc1nc2ccccn2c(=N)c1S(=O)(=O)c1ccccc1` showed for 5-hydroxytryptamine receptor 6 (Homo sapiens) is 8.40

The measured pIC50 that `CSc1nc2c(Br)cc(C)cn2c(=N)c1S(=O)(=O)c1ccccc1` showed for 5-hydroxytryptamine receptor 6 (Homo sapiens) is 6.57

* * *

- test.target: Cytochrome P450 2C19 (Homo sapiens)
- experimental.protocol: Inhibition of recombinant human Cytochrome P450 2C19
endpoint.label: pIC50
Please keep in mind that pIC50 is minus log10 of the molar concentration; only the number is needed.

response.value for `CSc1nc2ccccn2c(=N)c1S(=O)(=O)c1ccccc1` (field: pIC50) = 6.07

* * *

- test.target: Cytochrome P450 1A2 (Homo sapiens)
- Sequence (P05177 whole entry): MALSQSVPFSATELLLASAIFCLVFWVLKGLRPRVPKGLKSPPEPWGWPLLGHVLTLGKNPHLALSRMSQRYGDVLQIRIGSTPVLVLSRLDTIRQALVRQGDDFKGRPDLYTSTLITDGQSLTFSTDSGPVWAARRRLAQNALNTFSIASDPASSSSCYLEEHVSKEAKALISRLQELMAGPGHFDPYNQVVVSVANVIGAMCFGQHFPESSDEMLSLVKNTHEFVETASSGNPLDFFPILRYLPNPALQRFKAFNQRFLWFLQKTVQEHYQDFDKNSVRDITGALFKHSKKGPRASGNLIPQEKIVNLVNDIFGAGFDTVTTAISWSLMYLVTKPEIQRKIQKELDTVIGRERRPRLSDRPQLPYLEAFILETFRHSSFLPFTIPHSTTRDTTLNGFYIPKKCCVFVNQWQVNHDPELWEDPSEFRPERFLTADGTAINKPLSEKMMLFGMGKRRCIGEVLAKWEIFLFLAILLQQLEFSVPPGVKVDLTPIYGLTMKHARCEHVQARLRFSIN
- experimental.protocol: Inhibition of recombinant human Cytochrome P450 1A2
endpoint.label: IC50

response.value for `CSc1nc2ccccn2c(=N)c1S(=O)(=O)c1ccccc1` (field: IC50) = > 40 µM
